Hi there, I'd appreciate the recorded Population Normal (%) for every entry that follows.
- Tested on: HEK-293T
- test method notes: Multiplex assay against HEK293T
- Type: toxicity, cell-based
- conditions used: human, 12 h, 1 µM, compound concentration 1 uM, replicate 2
Note to self: number, then unit, no commentary.

Data request: Consider the compound shown here: `CCCCC1=NC2(CCCC2)C(=O)N1Cc1ccc(-c2ccccc2-c2nnn[nH]2)cc1` What is its recorded Population Normal (%)?
Data returned: 95%

Data request: Request: `Cc1c(CC(=O)O)c2cccnc2n1Cc1ccc(S(C)(=O)=O)cc1C(F)(F)F`
Data returned: 92%

Data request: Request: `O=C1[C@H](Cc2ccc(O)cc2)N2C(=O)CCN(C(=O)NCc3ccccc3)[C@H]2CN1Cc1cccc2ccccc12`
Data returned: 91%

Data request: Request: Cl.NCCc1ccc(O)c(O)c1 [DOPAMINE HYDROCHLORIDE]
Data returned: 93%

Data request: Request: COC[C@@H](c1ccc(C(F)(F)F)cc1)N1CCN(C2(C)CCN(C(=O)c3c(C)ncnc3C)CC2)C[C@@H]1C.O=C(O)/C=C\C(=O)O [VICRIVIROC MALEATE]
Data returned: 94%

Data request: Request: `COc1cccc2c1c(NS(=O)(=O)c1ccc(Cl)s1)nn2Cc1cccc(CNC(=O)C(C)(C)O)c1`
Data returned: 89%

Data request: Request: `Cc1cccc(NC(=O)CN2CCC(c3ccccn3)CC2)c1.Cl.Cl`
Data returned: 96%

Data request: Request: Cc1sc2c(c1C)C(c1ccc(Cl)cc1)=N[C@@H](CC(=O)NCCCCCCCCNC(=O)COc1cccc3c1C(=O)N(C1CCC(=O)NC1=O)C3=O)c1nnc(C)n1-2 (some centres not stated)
Data returned: 69%

Data request: Request: Cl.N=C(N)NC(=O)Cc1c(Cl)cccc1Cl [GUANFACINE HYDROCHLORIDE]
Data returned: 87%

Data request: Request: `N#Cc1c(Oc2cccc(OS(=O)(=O)CCCC(F)(F)F)c2)cccc1C(F)(F)F`
Data returned: 88%

Data request: Request: CCCCCC(O)/C=C/[C@H]1C(=O)CC(O)C1C/C=C\CCCC(=O)O (some centres not stated)
Data returned: 93%

Data request: Request: O=C(NCCN1CCC(n2c(=O)[nH]c3cc(Cl)ccc32)CC1)c1ccc(F)cc1 [HALOPEMIDE]
Data returned: 89%

Data request: Request: `N#Cc1cc(F)cc(-c2nc(-c3ccc(F)cn3)no2)c1`
Data returned: 91%

Data request: Request: `CC(C)(C)c1cc(NC(=O)Nc2ccc(-c3cn4c(n3)sc3cc(OCCN5CCOCC5)ccc34)cc2)no1`
Data returned: 93%

Data request: Request: `CC(C)c1noc(N2CCC(COc3ccc(-c4ccc(S(C)(=O)=O)cc4)nc3)CC2)n1`
Data returned: 93%

Data request: Request: `CN(C)C(=O)Cn1cc(-c2ccc(-c3cncc4ccccc34)cc2)cn1`
Data returned: 97%

Data request: Request: `COc1ccccc1N1CCN(C[C@@H](C(=O)NC(C)(C)C)c2ccccc2)CC1.Cl.Cl`
Data returned: 93%

====

- Tested on: HEK-293T
- test method notes: Multiplex assay against HEK293T
- Format: toxicity, cell-based
- conditions used: human, 48 h, 1 µM, compound concentration 1 uM, replicate 2
property: Population Pyknosed Nuclei (%)
Expressed in %, but write only the number.

Data request: Field: Population Pyknosed Nuclei (%) (HEK-293T). Entry: `C[C@H](N)COC(=O)[C@@H](CCCCN)NC(=O)Cc1c(-c2ccc3ccccc3c2)[nH]c2c1ccc1ccccc12`
Data returned: 9

Data request: Request: `NCCc1cn(S(=O)(=O)c2c(Cl)nc3sccn23)c2ccccc12.O=C(O)C(=O)O`
Data returned: 5

Data request: Request: O=C(NCCN1CCC(n2c(=O)[nH]c3cc(Cl)ccc32)CC1)c1ccc(F)cc1 [HALOPEMIDE]
Data returned: 7

Data request: Request: CCCCCC(O)/C=C/[C@H]1C(=O)CC(O)C1C/C=C\CCCC(=O)O (stereo not given in full)
Data returned: 5

Data request: Request: Cl.N=C(N)NC(=O)Cc1c(Cl)cccc1Cl [GUANFACINE HYDROCHLORIDE]
Data returned: 9

====

- Test system: U2OS
- test method notes: Multiplex assay against U2OS
- Assay type: toxicity, cell-based
- conditions used: human, 24 h, 10 µM, compound concentration 10 uM, replicate 2
property: Population Normal (%)
Expressed in %, but write only the number.

Data request: Consider the compound shown here: `CN1CCN(c2cc(-c3ccccc3)nc(N)n2)CC1` What is its recorded Population Normal (%)?
Data returned: 97

Data request: Request: Cc1c(CC(=O)O)c2cccnc2n1Cc1ccc(S(C)(=O)=O)cc1C(F)(F)F [FEVIPIPRANT]
Data returned: 98

Data request: Request: CC[C@@H](C)Nc1nc(C)nc2c(-c3ccc(OC)nc3C)c(C)nn12 [PEXACERFONT]
Data returned: 99

Data request: Request: `N#Cc1c(Oc2cccc(OS(=O)(=O)CCCC(F)(F)F)c2)cccc1C(F)(F)F`
Data returned: 96

Data request: Request: `CCCCC(=O)N(Cc1ccc(-c2ccccc2-c2nnn[nH]2)cc1)[C@H](C(=O)O)C(C)C`
Data returned: 100

Data request: Request: `O=C1[C@H](Cc2ccc(O)cc2)N2C(=O)CCN(C(=O)NCc3ccccc3)[C@H]2CN1Cc1cccc2ccccc12`
Data returned: 94

Data request: Request: O=C(NCCN1CCC(n2c(=O)[nH]c3cc(Cl)ccc32)CC1)c1ccc(F)cc1 [HALOPEMIDE]
Data returned: 96

Data request: Request: Br.CS(=O)(=O)Nc1c(O)ccc2c1CCCC2C1=NCCN1 (stereo not drawn)
Data returned: 100

Data request: Request: `NCCc1cn(S(=O)(=O)c2c(Cl)nc3sccn23)c2ccccc12.O=C(O)C(=O)O`
Data returned: 96

Data request: Request: CN[C@@H](C)C(=O)N[C@H](C(=O)N1CCC[C@H]1C(=O)Nc1snnc1-c1ccccc1)C1CCCCC1 [GDC-0152]
Data returned: 89

Data request: Request: CCCCC1=NC2(CCCC2)C(=O)N1Cc1ccc(-c2ccccc2-c2nnn[nH]2)cc1 [IRBESARTAN]
Data returned: 99

Data request: Request: `O=C(CCCc1ccccc1)Nc1nc2ccccc2c(=O)s1`
Data returned: 98

Data request: Request: Cc1sc2c(c1C)C(c1ccc(Cl)cc1)=N[C@@H](CC(=O)NCCCCCCCCNC(=O)COc1cccc3c1C(=O)N(C1CCC(=O)NC1=O)C3=O)c1nnc(C)n1-2 (stereo partly drawn)
Data returned: 99

Data request: Request: `CN(C)C(=O)Cn1cc(-c2ccc(-c3cncc4ccccc34)cc2)cn1`
Data returned: 97

Data request: Request: `Cc1cccc(NC(=O)CN2CCC(c3ccccn3)CC2)c1.Cl.Cl`
Data returned: 97

Data request: Request: Cl.NCCc1ccc(O)c(O)c1 [DOPAMINE HYDROCHLORIDE]
Data returned: 99

Data request: Request: `Cc1noc(-c2ccc(-c3ccc(CC(=O)O)cc3)cc2)c1NC(=O)O[C@H](C)c1ccccc1Cl`
Data returned: 97

Data request: Request: CCC(=O)N1CCN(c2ccc(-n3c(=O)ccc4cnc5ccc(-c6cnc7ccccc7c6)cc5c43)cc2C(F)(F)F)CC1 [TORIN1]
Data returned: 97

Data request: Request: `N#Cc1cc(F)cc(-c2nc(-c3ccc(F)cn3)no2)c1`
Data returned: 99

Data request: Request: Cl.N=C(N)NC(=O)Cc1c(Cl)cccc1Cl [GUANFACINE HYDROCHLORIDE]
Data returned: 97

Data request: Request: `CCCOc1ccc2[nH]cc(C3=CCNCC3)c2n1.Cl`
Data returned: 99

Data request: Request: CC(C)c1noc(N2CCC(COc3ccc(-c4ccc(S(C)(=O)=O)cc4)nc3)CC2)n1 [GSK-1292263]
Data returned: 97

Data request: Request: `Cc1cnc(-c2cc(N3CCN(C(=O)CCS(C)(=O)=O)CC3)ncc2Cl)c(C)c1`
Data returned: 99

Data request: Request: `COc1cccc2c1c(NS(=O)(=O)c1ccc(Cl)s1)nn2Cc1cccc(CNC(=O)C(C)(C)O)c1`
Data returned: 94

Data request: Request: CC(C)(C)c1cc(NC(=O)Nc2ccc(-c3cn4c(n3)sc3cc(OCCN5CCOCC5)ccc34)cc2)no1 [QUIZARTINIB]
Data returned: 97

Data request: Request: CC(C)COc1ccc(CNC(=O)N(Cc2ccc(F)cc2)C2CCN(C)CC2)cc1 [PIMAVANSERIN]
Data returned: 96

Data request: Request: `CC(/C=C1\SC(=S)N(CCCC(=O)Nc2ccc(C(=O)O)c(O)c2)C1=O)=C\c1ccccc1`
Data returned: 100

Data request: Request: CCCCCC(O)/C=C/[C@H]1C(=O)CC(O)C1C/C=C\CCCC(=O)O (stereo partly drawn)
Data returned: 97
